Biological target: JAK1 (recombinant purified GST-tagged catalytic domain) (Homo sapiens (Human), UniProt P23458);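 further: biochemical assay with HTRF read-out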
Sequence (P23458 875-1153): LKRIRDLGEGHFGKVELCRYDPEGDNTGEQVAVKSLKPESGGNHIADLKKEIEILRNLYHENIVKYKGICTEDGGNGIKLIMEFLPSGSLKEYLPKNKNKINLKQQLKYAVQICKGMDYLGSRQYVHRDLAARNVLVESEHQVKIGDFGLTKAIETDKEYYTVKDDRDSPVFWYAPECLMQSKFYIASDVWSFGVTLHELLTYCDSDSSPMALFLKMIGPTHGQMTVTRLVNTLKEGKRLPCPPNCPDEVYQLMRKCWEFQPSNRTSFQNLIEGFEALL
Assay: biochemical
pIC50: −log10 of the molar value.
TEST_READOUT: pIC50

[
  {
    "COMPOUND": "N#C[C@@H]1CC2(CCC1n1cc(C(N)=O)c(Nc3ccnc(F)c3)n1)CC2 (mixture of isomers) [Example 11-7]",
    "VALUE": 8.30
  },
  {
    "COMPOUND": "N#C[C@H]1C[C@H](NC2(C(F)(F)F)CC2)CC[C@@H]1n1cc(C(N)=O)c(Nc2ccc(Cl)cc2)n1 (single isomer, unassigned) [Example 28-227]",
    "VALUE": 7.57
  },
  {
    "COMPOUND": "N#C[C@H]1C[C@@H](N2CC(O)(C(F)(F)F)C2)CCC1n1cc(C(N)=O)c(Nc2ccc(Cl)cc2)n1 (single isomer, unassigned) [Example 28-213]",
    "VALUE": 9.00
  },
  {
    "COMPOUND": "CN[C@@H]1CCC(n2cc(C(N)=O)c(Nc3ccc(F)cc3)n2)[C@@H](C#N)C1 (mixture of isomers) [Example 27-3]",
    "VALUE": 9.10
  },
  {
    "COMPOUND": "N#C[C@@H]1CCC[C@@H](O)C1n1cc(C(N)=O)c(Nc2ccccc2)n1 (mixture of isomers) [Example 2-5]",
    "VALUE": 6.15
  },
  {
    "COMPOUND": "COCC(C)N(C)[C@H]1CCC(n2cc(C(N)=O)c(Nc3ccc(Cl)cc3)n2)[C@@H](C#N)C1 (single isomer, unassigned) [Example 28-240]",
    "VALUE": 8.70
  }
]

Numbers sourced from patent US8962608B2.
